B1: Chromodomain-helicase-DNA-binding protein 4, residues 444 to 496; numbered along this chain, Q14839 (parent)
chain: EDDHHMEFCRVCKDGGELLCCDTCPSSYHIHCLNPPLPEIPNGEWLCPRCTCP

Variants of: B1
Assay: abundance fitness (aPCA) (normalised: wild type 0, dead -1); higher = more abundant; growth selection in yeast, the domain comes from the species named
Conditions: Homo sapiens
just bin them by abundance fitness: low: < -0.3; mid: ≥ -0.3 and < -0.06; high: ≥ -0.06

Past entries and their recorded results:
[
  {
    "MUTATION_LIST": "C50T",
    "ASSIGNED_LABEL": "low"
  },
  {
    "MUTATION_LIST": "F8E",
    "ASSIGNED_LABEL": "high"
  },
  {
    "MUTATION_LIST": "P38T",
    "ASSIGNED_LABEL": "high"
  },
  {
    "MUTATION_LIST": "T23A",
    "ASSIGNED_LABEL": "mid"
  },
  {
    "MUTATION_LIST": "L33I",
    "ASSIGNED_LABEL": "mid"
  },
  {
    "MUTATION_LIST": "H5A",
    "ASSIGNED_LABEL": "high"
  }
]

Switching to the query record.
Class label required: I40V
high
